- Tested Target: Serine/threonine-protein kinase TAO3 (Homo sapiens); note: in the data inactive means no Kd found up to 30 µM
- Sequence (Q9H2K8 whole entry): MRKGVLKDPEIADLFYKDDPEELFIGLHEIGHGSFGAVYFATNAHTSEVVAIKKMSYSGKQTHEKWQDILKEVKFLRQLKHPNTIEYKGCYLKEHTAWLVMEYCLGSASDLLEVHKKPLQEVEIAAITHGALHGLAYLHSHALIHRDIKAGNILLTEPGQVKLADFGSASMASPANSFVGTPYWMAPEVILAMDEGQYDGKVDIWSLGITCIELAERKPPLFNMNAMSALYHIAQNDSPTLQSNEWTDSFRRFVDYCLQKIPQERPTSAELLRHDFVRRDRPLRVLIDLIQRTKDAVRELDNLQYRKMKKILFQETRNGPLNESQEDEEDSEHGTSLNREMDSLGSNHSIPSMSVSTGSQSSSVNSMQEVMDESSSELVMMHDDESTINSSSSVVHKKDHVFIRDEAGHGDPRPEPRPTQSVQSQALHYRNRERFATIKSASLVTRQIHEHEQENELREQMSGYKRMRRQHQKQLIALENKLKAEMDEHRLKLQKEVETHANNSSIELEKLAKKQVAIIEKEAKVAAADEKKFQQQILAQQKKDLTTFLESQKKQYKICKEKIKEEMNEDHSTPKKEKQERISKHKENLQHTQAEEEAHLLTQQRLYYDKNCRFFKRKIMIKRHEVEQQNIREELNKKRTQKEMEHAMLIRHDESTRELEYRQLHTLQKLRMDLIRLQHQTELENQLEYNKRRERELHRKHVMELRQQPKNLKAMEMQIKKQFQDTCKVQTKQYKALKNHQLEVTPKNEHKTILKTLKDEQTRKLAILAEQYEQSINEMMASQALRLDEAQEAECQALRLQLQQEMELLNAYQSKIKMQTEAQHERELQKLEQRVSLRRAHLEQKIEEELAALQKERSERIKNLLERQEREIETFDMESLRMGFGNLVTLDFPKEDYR
Activity calls are given as the source filed them.
Pick from active, inactive when you respond.

Example entries begin here.
Compound: Cn1cc(-c2[nH]c3cc(NC(=O)[C@H](N)C4CCCCC4)cc4c3c2C=NNC4=O)cn1
Assigned Label: inactive

Compound: CC[C@@](C)(Nc1ccnc(-c2c[nH]c3ncccc23)n1)C(=O)NCC(F)(F)F [DECERNOTINIB]
Assigned Label: active

Compound: CCOc1ccn(-c2ccc(F)cc2)c(=O)c1C(=O)Nc1ccc(Oc2ccnc(N)c2Cl)c(F)c1 [BMS-777607]
Assigned Label: inactive

Compound: COc1cc2ncnc(Nc3ccc(O)cc3)c2cc1OC [WHI-P131]
Assigned Label: inactive

Compound: C#Cc1cccc(Nc2ncnc3cc4c(cc23)OCCOCCOCCO4)c1 [ICOTINIB]
Assigned Label: inactive

Outcome? Cc1cc(Nc2nc(N[C@@H](C)c3ncc(F)cn3)ncc2Cl)n[nH]1 [AZD-1480] inactive

Outcome? CCN(CCCOc1ccc2c(Nc3cc(CC(=O)Nc4cccc(F)c4)n[nH]3)ncnc2c1)CCOP(=O)(O)O [BARASERTIB] inactive

Outcome? Cc1c(NC(=O)OC[C@@H]2COCCN2)cn2ncnc(Nc3ccc4c(cnn4Cc4cccc(F)c4)c3)c12 [AC-480] inactive

Outcome? COc1cc2ncnc3c2cc1OCCCCCN(C)Cc1ccc(Br)cc1N3 [JNJ-26483327] inactive

Outcome? O=C(Nc1ccc(OC(F)(F)F)cc1)c1sccc1NCc1ccnc2ccccc12 [OSI-930] inactive

Outcome? Cn1c(=O)n(-c2ccc(C(C)(C)C#N)cc2)c2c3cc(-c4cnc5ccccc5c4)ccc3ncc21 [DACTOLISIB] inactive

Outcome? C=CC(=O)Nc1cc(Nc2nccc(-c3cn(C)c4ccccc34)n2)c(OC)cc1N(C)CCN(C)C [OSIMERTINIB] inactive

Outcome? CN1CCN(c2nc(C3=C(c4c[nH]c5ccccc45)C(=O)NC3=O)c3ccccc3n2)CC1 [SOTRASTAURIN] inactive

Outcome? O=S(=O)(c1cccc2cnccc12)N1CCCNCC1 [FASUDIL] inactive

Outcome? C[C@]1(O)C[C@@H](c2nc(-c3ccc4ccc(-c5ccccc5)nc4c3)c3c(N)nccn32)C1 [LINSITINIB] inactive

Outcome? CCc1cc2c(cc1N1CCC(N3CCOCC3)CC1)C(C)(C)c1[nH]c3cc(C#N)ccc3c1C2=O [ALECTINIB] inactive

Outcome? O=C(NOC[C@H](O)CO)c1ccc(F)c(F)c1Nc1ccc(I)cc1F [MIRDAMETINIB] inactive
